# ASSAY DETAILS: Selectivity index, ratio of EC50 for human RBC to MIC for methicillin resistant Staphylococcus epidermidis RP62A ATCC 35984/CCUG 31568
# Format: toxicity
# EXPERIMENTAL PARAMETERS: human red blood cells (RBC), read-out: Selectivity Index
Parameter selectivity ratio: see the listing below.
Respond using a number only.

CC(C)(C)c1cc(C(C)(C)C)cc(S(=O)(=O)Nc2cccc(C(=O)NCCNC(=N)N)c2)c1.Cl
12
CC(C)(C)c1cc(C(C)(C)C)cc(S(=O)(=O)Nc2cc3ccccc3cc2C(=O)NCCN)c1.Cl
5
CN(c1ccc(C(=O)NCCNC(=N)N)cc1)S(=O)(=O)c1cc(C(C)(C)C)cc(C(C)(C)C)c1.Cl
11

Quick check: selectivity ratio of CC(C)(C)c1cc(C(C)(C)C)cc(S(=O)(=O)NCCCCNC(=N)N)c1.Cl ?
14

---

# System: Bacillus subtilis
# ASSAY DETAILS: Antibacterial activity against Bacillus subtilis 168 ATCC 23857 after 48 hrs by microdilution method
# Type: functional
# EXPERIMENTAL PARAMETERS: subsp. subtilis str. 168 ATCC 23857, 48 h
METRIC: log10 MIC (log10 of the value in µg/mL)
A value of 2 here means MIC of 100 in µg/mL, since values are log10.

Some solved entries appear below for comparison.
CC(C)(C)c1cc(C(C)(C)C)cc(S(=O)(=O)Nc2ccccc2C(=O)NCCN)c1.Cl
1.51
CC(C)(C)c1cc(C(C)(C)C)cc(S(=O)(=O)N2CCC(C(=O)NCCNC(=N)N)CC2)c1.Cl
1.20
CC(C)(C)c1cc(C(C)(C)C)cc(S(=O)(=O)Nc2ccc(CC(=O)NCCNC(=N)N)cc2)c1.Cl
0.90

Please look up its log10 MIC: CC(C)(C)c1cc(C(C)(C)C)cc(S(=O)(=O)Nc2ccc(CC(=O)NCCN)cc2)c1.Cl
1.20

Which log10 MIC value is on record for Cc1cc(C(=O)NCCNC(=N)N)ccc1NS(=O)(=O)c1cc(C(C)(C)C)cc(C(C)(C)C)c1.Cl ?
0.90

Could you tell me which log10 MIC is on file for CC(C)(C)c1cc(C(C)(C)C)cc(S(=O)(=O)Nc2cc3ccccc3cc2C(=O)NCCNC(=N)N)c1.Cl ?
0.60

May I ask what log10 MIC has been recorded for CN(c1cccc(C(=O)NCCNC(=N)N)c1)S(=O)(=O)c1cc(C(C)(C)C)cc(C(C)(C)C)c1.Cl ?
0.60

// query log10 MIC value for entry Cl.N=C(N)NCCNC(=O)c1ccc(NS(=O)(=O)c2ccc3ccccc3c2)cc1
1.81

Give its log10 MIC value. Item: Cc1cc(C)cc(S(=O)(=O)Nc2ccc(C(=O)NCCNC(=N)N)cc2)c1.Cl
1.81

---

# Test system: Enterococcus sp.
# ASSAY DETAILS: Antibacterial activity against Enterococcus sp. clinical isolates after 24 hrs by microdilution method
# Assay type: functional
# MIC per record follows
Field: numeric (µg/mL). Do not append units.

Here's what some known entries look like.
CC(C)(C)c1cc(C(C)(C)C)cc(S(=O)(=O)Nc2cc3ccccc3cc2C(=O)NCCNC(=N)N)c1.Cl
8
CC(C)(C)c1cc(C(C)(C)C)cc(S(=O)(=O)Nc2ccccc2C(=O)NCCN)c1.Cl
32
CN(c1ccc(C(=O)NCCNC(=N)N)cc1)S(=O)(=O)c1cc(C(C)(C)C)cc(C(C)(C)C)c1.Cl
32

For CC(C)(C)c1cc(C(C)(C)C)cc(S(=O)(=O)Nc2cc3ccccc3cc2C(=O)NCCN)c1.Cl , what is its reported MIC?
8

Recorded MIC for CN(c1cccc(C(=O)NCCNC(=N)N)c1)S(=O)(=O)c1cc(C(C)(C)C)cc(C(C)(C)C)c1.Cl , please?
16

Fill blank: measured MIC of the compound CC(C)(C)c1cc(C(C)(C)C)cc(S(=O)(=O)Nc2ccc(CC(=O)NCCNC(=N)N)cc2)c1.Cl is ____.
32
